Data origin: PubChem BioAssay

Quick list: double positive events per entry.
PROTOCOL DETAILS: inhibitors of CD8+ T cell-vesicle binding, pilot screen, LFA-1/ICAM-1 modulator project, MLPCN validation set, flow cytometry (AID 2523)
STATED CONDITIONS: 2C mouse CD8+ T cells, at 7 µM, stronger effect = lower value; measured here: CD8+/vesicle+ event percentage
READOUT KIND: double positive events (%)

{"COMPOUND": "C=CCNC(=S)N1CCc2c([nH]c3ccccc23)C1C (stereo unspecified)", "READOUT KIND": "double positive events", "VAL": 60.6}
{"COMPOUND": "CC(C)CCOCC(=O)Nc1cccc(C(=O)O)c1", "READOUT KIND": "double positive events", "VAL": 59.8}
{"COMPOUND": "COc1cc2c(cc1OC)C(c1cc(OC)c(OC)c(OC)c1)NCC2 (stereo unspecified)", "READOUT KIND": "double positive events", "VAL": 59.3}
{"COMPOUND": "O=C(/C=C/c1ccc2c(c1)OCO2)c1ccccn1", "READOUT KIND": "double positive events", "VAL": 60.4}
{"COMPOUND": "COc1cc(C(=O)OCCCN(C)C)cc(OC)c1OC", "READOUT KIND": "double positive events", "VAL": 60.1}
{"COMPOUND": "CC(=O)N1CC23C=CC(CC2CC12CCCCCC2)O3 (stereo unspecified)", "READOUT KIND": "double positive events", "VAL": 61.4}
{"COMPOUND": "C[N+]12CCC(CC1)C(OC(=O)C(O)(c1ccccc1)c1ccccc1)C2 (stereo unspecified)", "READOUT KIND": "double positive events", "VAL": 60.6}
{"COMPOUND": "N=c1ccn(CC(=O)NC(N)=O)c2ccccc12", "READOUT KIND": "double positive events", "VAL": 55.8}
{"COMPOUND": "CC1=CC(C)(C)N2C(=O)C3(NCCc4c3[nH]c3ccccc43)c3cc(C)cc1c32 (stereo unspecified)", "READOUT KIND": "double positive events", "VAL": 63}
{"COMPOUND": "CC(=O)OCC(=O)[C@@]12OC(C)(C)O[C@@H]1C[C@H]1[C@@H]3C[C@H](F)C4=CC(=O)C=C[C@]4(C)[C@@]3(F)[C@@H](O)C[C@@]12C", "READOUT KIND": "double positive events", "VAL": 64.6}
{"COMPOUND": "CCc1cc2c3c(c(=O)oc2cc1O)CCCC3", "READOUT KIND": "double positive events", "VAL": 67.8}
{"COMPOUND": "CCOC(=O)C(=O)Nc1ccc(Oc2ccccc2)cc1", "READOUT KIND": "double positive events", "VAL": 61.7}
{"COMPOUND": "O=C(O)c1cccnc1", "READOUT KIND": "double positive events", "VAL": 54.3}
{"COMPOUND": "COc1ccc(CNC(=O)C2CCN(C(=O)[C@@H](CC(C)C)NC(=O)OC(C)(C)C)CC2)cc1", "READOUT KIND": "double positive events", "VAL": 63.6}
{"COMPOUND": "Cc1cnc(C(=O)NCCc2ccc(S(=O)(=O)NC(=O)NC3CCCCC3)cc2)cn1", "READOUT KIND": "double positive events", "VAL": 65}
{"COMPOUND": "CC(=O)O[C@]1(C(C)=O)CC[C@H]2[C@@H]3C=C(Cl)C4=CC(=O)CC[C@]4(C)[C@H]3CC[C@@]21C", "READOUT KIND": "double positive events", "VAL": 48.7}

====

PROTOCOL DETAILS: LAP4-GFP expression modulators in yeast, confirmation, cell-based, cherry picks, flow cytometry, mother/daughter gates (AID 2271);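 note: ratio of sample to DMSO plate mean so 100% equals DMSO level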
STATED CONDITIONS: S. cerevisiae LAP4-GFP strain, 3 h, measured here: mother cell gate response, at 10 µM, stronger effect = higher value, 100 means same as DMSO control

{"COMPOUND": "Cc1c(CC(C)C)nc(N)c(C#N)c1-c1ccccc1", "GFP response relative to DMSO, %": 92.6}
{"COMPOUND": "O=C(CSc1nnc(C2COc3ccccc3O2)o1)N1CCCC1 (configuration not stated)", "GFP response relative to DMSO, %": 95.1}
{"COMPOUND": "O=C(OCC(=O)N1CCN(C(=O)c2ccco2)CC1)c1cc(-c2ccc(Cl)c(Cl)c2Cl)nc2ccccc12", "GFP response relative to DMSO, %": 104}
{"COMPOUND": "CCCc1[nH]nc2c1C(c1ccc(O)cc1OCC)C(C#N)=C(N)O2 (configuration not stated)", "GFP response relative to DMSO, %": 92.3}
{"COMPOUND": "Cc1cccc(/C(N)=N/OC(=O)C23CC4CC(CC(C4)C2)C3)c1", "GFP response relative to DMSO, %": 119}
{"COMPOUND": "Cc1c(NC(=O)/C(C#N)=C/c2c(N3CCCCC3)nc3ccccn3c2=O)c(=O)n(-c2ccccc2)n1C", "GFP response relative to DMSO, %": 95.1}
{"COMPOUND": "Clc1ccc(-c2nnnn2-c2ccc(Cl)cc2)cc1", "GFP response relative to DMSO, %": 96.4}
{"COMPOUND": "COCCCNC(=O)c1ccc2c3c(onc13)-c1ccccc1C2=O", "GFP response relative to DMSO, %": 137}
{"COMPOUND": "Cc1cccc(CSc2cccc3cccnc23)c1", "GFP response relative to DMSO, %": 132}
{"COMPOUND": "CC(=O)Oc1oc(-c2ccccc2)nc1C=Nc1ccc(N(C)C)cc1", "GFP response relative to DMSO, %": 98.3}
{"COMPOUND": "CCOC(=O)CNc1c(-c2ccc(OC)cc2)nc2ccc(Cl)cn12", "GFP response relative to DMSO, %": 102}
{"COMPOUND": "Cc1cccc(Sc2ccc([N+](=O)[O-])cn2)c1", "GFP response relative to DMSO, %": 92}
{"COMPOUND": "Cc1cc(O)c(C(=O)/C=C/c2cccc([N+](=O)[O-])c2)c(=O)o1", "GFP response relative to DMSO, %": 152}
{"COMPOUND": "COc1ccc(-c2cc3cc(C(=O)O)ccn3c2C(=O)c2ccccc2)cc1", "GFP response relative to DMSO, %": 108}
{"COMPOUND": "COc1ccc(NC(=O)/C(Cl)=C(/Cl)S(=O)Cc2ccccc2)cn1 (configuration not stated)", "GFP response relative to DMSO, %": 243}
{"COMPOUND": "O=C(CCc1ccc(S(=O)(=O)N2CCOCC2)cc1)Oc1ccccc1", "GFP response relative to DMSO, %": 109}
{"COMPOUND": "O=C(N/N=C/c1ccc(Cl)cc1Cl)c1cccc(F)c1", "GFP response relative to DMSO, %": 109}
{"COMPOUND": "CCCCn1c(-c2csc3c2CCCC3)n[nH]c1=S", "GFP response relative to DMSO, %": 128}
{"COMPOUND": "O=C1c2ccsc2SCCN1Cc1c(Cl)cccc1Cl", "GFP response relative to DMSO, %": 102}
{"COMPOUND": "CCCc1[nH]nc2c1C(c1ccc(OCCN3CCOCC3)c(OC)c1)C(C#N)=C(N)O2 (configuration not stated)", "GFP response relative to DMSO, %": 96.1}
{"COMPOUND": "Cc1ccc(-c2ccc(CCC(=O)O)o2)cc1", "GFP response relative to DMSO, %": 150}
{"COMPOUND": "CCCc1cc(NCc2ccccn2)n2nc(C)c(-c3ccccc3)c2n1", "GFP response relative to DMSO, %": 148}
{"COMPOUND": "Cc1cccc(NC(=O)c2ccccc2O)c1C", "GFP response relative to DMSO, %": 116}
{"COMPOUND": "Cc1nn2c(N3CCN(C(=O)c4ccco4)CC3)cc(C(C)(C)C)nc2c1-c1ccccc1", "GFP response relative to DMSO, %": 92.9}
{"COMPOUND": "O=C(N/N=C/c1c(Cl)cccc1Cl)c1ccc(F)cc1", "GFP response relative to DMSO, %": 105}
{"COMPOUND": "COc1ccc(Sc2ncnc3onc(C)c23)cc1", "GFP response relative to DMSO, %": 120}
{"COMPOUND": "O=C1C=CC(=O)N1c1ccc(O)cc1", "GFP response relative to DMSO, %": 192}
{"COMPOUND": "Cc1ccc(-c2nc(NC(=O)c3nn(C)cc3[N+](=O)[O-])sc2C)cc1C", "GFP response relative to DMSO, %": 99.5}
{"COMPOUND": "Cc1cc(OCc2ccc(C(=O)NN=C3CCCC3)cc2)ccc1Cl", "GFP response relative to DMSO, %": 135}
{"COMPOUND": "CCc1nnc(NC(=O)c2ccc(S(=O)(=O)N(CC)Cc3ccccc3)cc2)o1", "GFP response relative to DMSO, %": 99.5}
{"COMPOUND": "Cc1[nH]c(-c2ccccn2)nc(=S)c1Cl", "GFP response relative to DMSO, %": 266}
{"COMPOUND": "C=CCNC(=O)/C(C#N)=C/c1c(N2CC(C)OC(C)C2)nc2ccccn2c1=O (configuration not stated)", "GFP response relative to DMSO, %": 105}
{"COMPOUND": "Cc1cccn2c(=O)c(/C=C(\\C#N)C(=O)NC3CCS(=O)(=O)C3)c(N3CCC(C(N)=O)CC3)nc12 (configuration not stated)", "GFP response relative to DMSO, %": 98.4}
{"COMPOUND": "Cc1ccccc1NC(=O)COC(=O)c1cc(=O)c2ccccc2o1", "GFP response relative to DMSO, %": 86}
{"COMPOUND": "COc1ccc(N/N=C(\\C#N)C(N)=O)cc1", "GFP response relative to DMSO, %": 185}
{"COMPOUND": "COc1ccc(N2C(=O)C(Cl)=C(Nc3ccccc3O)C2=O)cc1", "GFP response relative to DMSO, %": 103}
{"COMPOUND": "CCOc1ccccc1C1N=C(c2ccc(OC)cc2)CC(c2ccccc2O)N1 (configuration not stated)", "GFP response relative to DMSO, %": 109}
{"COMPOUND": "Cc1cc(NCCCN2CCOCC2)n2ncc(-c3ccccc3)c2n1", "GFP response relative to DMSO, %": 98.3}
{"COMPOUND": "Cc1nnc(N2C(=O)c3cccc4cccc(c34)C2=O)s1", "GFP response relative to DMSO, %": 96.4}
{"COMPOUND": "Cc1ccc(-c2csc(NC(=O)c3cccc([N+](=O)[O-])c3)n2)cc1", "GFP response relative to DMSO, %": 97.3}
{"COMPOUND": "Cn1cc([N+](=O)[O-])c(C(=O)Nc2nc(-c3ccc(Cl)cc3)cs2)n1", "GFP response relative to DMSO, %": 102}
{"COMPOUND": "CCOC(=O)CSC1=NC(=O)/C(=C/c2ccc(OC)cc2)S1", "GFP response relative to DMSO, %": 159}
